# testDescription: Human HepG2 cell viability assay in 384 well format
# Assay type: toxicity, cell-based
# Design: dose 125 nL, time 70.5 hour; concentration not given beside the values
# experimentalConditions: HepG2 cells, read-out: Inhibition
attributeMeasured: cytotoxicity at 70.5 h (%)
Numbers only here, please. The scale is %.

As a guide, the following entries are already answered.
compound=Cc1cnc(CNC(=O)NCc2cccnc2N(C)C)s1 attributemeasured="cytotoxicity at 70.5 h" reading=-17.2
compound="COc1cc(C(=O)NCC2CCCN(Cc3ccco3)C2)ccn1 (configuration not stated)" attributemeasured="cytotoxicity at 70.5 h" reading=16.1
compound="COCC(NC(=O)c1cc(NC(C)=O)ccc1Cl)c1ccnn1C (configuration not stated)" attributemeasured="cytotoxicity at 70.5 h" reading=-1.93
compound=COC(=O)c1ccc(C(=O)NCc2ccc(Br)cc2)cn1 attributemeasured="cytotoxicity at 70.5 h" reading=-2.31
compound=CCOCC(=O)N1CCC(C)(c2nccs2)CC1 attributemeasured="cytotoxicity at 70.5 h" reading=13.6

Item: Cn1cnc2c1C(COCC1CC1)CN(C(=O)c1cccs1)C2 (configuration not stated) | cytotoxicity at 70.5 h: 8.88

Lookup result for O=C(c1ccc(Br)o1)N1CCCCC1Cn1cccn1 (configuration not stated) ; measured cytotoxicity at 70.5 h: -10.3

Please fill in: cytotoxicity at 70.5 h reported for `Cc1cccc(S(=O)(=O)N2C[C@@H]3C[C@@H](c4nc(C)no4)O[C@@H]3C2)c1` = -3.34

----------
# testDescription: Human HepG2 cell viability assay in 384 well format
# Type: toxicity, cell-based
# Parameters: dose 125 nL, time 70.5 hour; concentration not given beside the values
# experimentalConditions: HepG2 cells, read-out: Inhibition
Measured cytotoxicity at 70.5 h, listed per entry.
The reply should contain only the number, in %.

Here is how some compounds turned out for cytotoxicity at 70.5 h.
compound=Cc1noc(C)c1CN1CCc2ncnc(-c3ccncc3)c2CC1 attributemeasured="cytotoxicity at 70.5 h" reading=42.6
compound=Cn1nc(CNC(=O)c2cccc(C(F)(F)F)c2)c2c1CCOC2 attributemeasured="cytotoxicity at 70.5 h" reading=-3.96
compound=CCn1cc(CN2CCCN(C(=O)c3ccoc3)CC2)cn1 attributemeasured="cytotoxicity at 70.5 h" reading=9.04
compound="CC(C)C1CN(C(=O)c2csc(CN(C)C)n2)CCC(=O)N1CC1CC1 (stereo not given)" attributemeasured="cytotoxicity at 70.5 h" reading=-10.8
compound="Cc1csc(N2CCN(Cc3ccccn3)CC2C)n1 (stereo not given)" attributemeasured="cytotoxicity at 70.5 h" reading=-5.63
compound=Cc1nn(C)c(N2CCOCC2)c1CNCc1ccc(Cl)s1 attributemeasured="cytotoxicity at 70.5 h" reading=-2.69
compound=O=S(=O)(c1ccc(F)cc1)N1CCN(CCCn2ccnc2)CC1 attributemeasured="cytotoxicity at 70.5 h" reading=-1.51
compound="Fc1cnc(N2CCOCC3(CCCN(c4nncs4)C3)C2)nc1 (stereo not given)" attributemeasured="cytotoxicity at 70.5 h" reading=-19.9
compound=c1cn(-c2ccc(N3CCC(NC4CC4)CC3)cc2)cn1 attributemeasured="cytotoxicity at 70.5 h" reading=-14.2
compound=O=C(NC1CCC1)c1c2c(N3CCCC3)ncnc2n2ccccc12 attributemeasured="cytotoxicity at 70.5 h" reading=-2.42

What the record says about Cc1cnn(CC2CCCN2Cc2nccn2C)c1 (stereo not given) : cytotoxicity at 70.5 h is 13.6

----------
Documented cytotoxicity at 70.5 h across a set of compounds
# testDescription: Human HepG2 cell viability assay in 384 well format
# Assay type: toxicity, cell-based
# Design: dose 125 nL, time 70.5 hour; concentration not given beside the values
# experimentalConditions: HepG2 cells, read-out: Inhibition
Response body: numeric value in %, unit text excluded.

compound=N#Cc1ccc(SCCC(=O)N(Cc2cccnc2)C2CC2)cc1 attributemeasured="cytotoxicity at 70.5 h" unitsymbol=% reading=-7.83

Per the records, this compound ( `CSc1ccc(-n2nnc(C(=O)O)c2-c2ccccn2)cc1` ) has cytotoxicity at 70.5 h equal to 11.2

The measured cytotoxicity at 70.5 h associated with `CCn1nc(C)c(NC(=O)CN2CC[C@@H](F)C2)c1C` reads -4.28

----------
# testDescription: Human HepG2 cell viability assay in 384 well format
# Format: toxicity, cell-based
# Set-up: dose 125 nL, time 70.5 hour; concentration not given beside the values
# experimentalConditions: HepG2 cells, read-out: Inhibition
cytotoxicity at 70.5 h for assorted compounds
Please state the number and follow it with the unit.

Consider the worked cases shown below.
compound=CCOC(=O)CNC(=O)N1CCN(c2ncccn2)CC1 reading=-4.84%
compound="Cc1cc(C)c(CNC(=O)N2CCCC2c2cc(C)on2)c(=O)[nH]1 (stereo not drawn)" reading=-7.12%
compound=Cc1nc2ccccc2n1CCNCc1cccc(O)c1 reading=-4.75%

compound `COCC(=O)N1CCC(Nc2ccnc3ccc(Cl)cc23)CC1` , cytotoxicity at 70.5 h observed: 4.85%

Entry under test: `CC(C)CC1(C(=O)NCc2nncn2C2CC2)CCC1` . Its cytotoxicity at 70.5 h was 1.12%

Looking up CC(C)NC(=O)C1CN(C(=O)Cc2cccc(F)c2)CC12CCOCC2 (stereo not drawn) , I found its cytotoxicity at 70.5 h recorded as 10.1%

----------
# testDescription: Human HepG2 cell viability assay in 384 well format
# Format: toxicity, cell-based
# Parameters: dose 125 nL, time 70.5 hour; concentration not given beside the values
# experimentalConditions: HepG2 cells, read-out: Inhibition
attributeMeasured: cytotoxicity at 70.5 h (%)
Respond with the bare value in %.

The molecule listed as `c1cnn(CCNCc2nnc(C3CC3)o2)c1` shows cytotoxicity at 70.5 h equal to 48.9

Kindly note the recorded cytotoxicity at 70.5 h for `O=C(COc1cccc(F)c1)N1C[C@@H](CN2CCCC2)C[C@H](CO)C1` , which is 0.446

The molecule listed as `Cc1ccc(-c2ccnc(N3CCC4(CC3)CNC(=O)O4)n2)c(C)n1` shows cytotoxicity at 70.5 h equal to -9.43

----------
# testDescription: Human HepG2 cell viability assay in 384 well format
# Assay type: toxicity, cell-based
# Design: dose 125 nL, time 70.5 hour; concentration not given beside the values
# experimentalConditions: HepG2 cells, read-out: Inhibition
attributeMeasured: cytotoxicity at 70.5 h (%)
Respond numerically; units are % and should not be typed.

Consider the worked cases shown below.
compound=Cc1noc(NC(=O)c2cccc(Br)c2)n1 attributemeasured="cytotoxicity at 70.5 h" reading=-0.644
compound=Cc1nc(O)c2nnn(C[C@H]3CCCN3C(=O)c3ccccc3C)c2n1 attributemeasured="cytotoxicity at 70.5 h" reading=11.5
compound="N#Cc1cccc(N2CCOCC3(CCCN(C(=O)NC4CC4)C3)C2)c1 (centres undefined)" attributemeasured="cytotoxicity at 70.5 h" reading=-6.43
compound=O=C(c1cccnc1)N(CCO)Cc1cc(Br)ccc1F attributemeasured="cytotoxicity at 70.5 h" reading=-3.63
compound="CNc1nc(C(=O)NCC2CCOc3ccccc3C2)cs1 (centres undefined)" attributemeasured="cytotoxicity at 70.5 h" reading=15.5

Query `CCOc1cccc2c1OCC(C(=O)NS(=O)(=O)c1cccs1)=C2` yields cytotoxicity at 70.5 h of -9.43

Consider Cn1cc(CNc2cnn(CC3CCCO3)c2)c(-c2ccncc2)n1 (centres undefined) . Its measured cytotoxicity at 70.5 h is 4.43

For Cc1ccc(C(C)NC(=O)CCc2cnn(C)c2)cc1F (centres undefined) the compound record lists cytotoxicity at 70.5 h as -8.21

So for `COC(=O)c1ccc(NC(=O)CNCc2ccco2)cc1` , the logged cytotoxicity at 70.5 h turned out to be -5.33

Entry `COCc1nc(CN(CC(N)=O)C(C)C)cs1` — recorded cytotoxicity at 70.5 h = -3.43

----------
Quick list: cytotoxicity at 70.5 h per entry.
# testDescription: Human HepG2 cell viability assay in 384 well format
# Assay type: toxicity, cell-based
# Parameters: dose 125 nL, time 70.5 hour; concentration not given beside the values
# experimentalConditions: HepG2 cells, read-out: Inhibition
Please respond with the number in % and leave the unit unwritten.

Worked set:
molecule="CN(C)c1ccc(CCCNC(=O)NCC(O)c2cccs2)cc1 (stereo not drawn)" reading=-8.37
molecule=CS(=O)(=O)c1nccn1CCOc1ccc(F)cc1Cl reading=-2.15

Briefly, cytotoxicity at 70.5 h measured for `O=C(N[C@@H]1CN(c2ncccn2)C[C@@H]2CCCO[C@@H]21)c1ccnnc1` : -6.03

----------
# testDescription: Human HepG2 cell viability assay in 384 well format
# Type: toxicity, cell-based
# Design: dose 125 nL, time 70.5 hour; concentration not given beside the values
# experimentalConditions: HepG2 cells, read-out: Inhibition
cytotoxicity at 70.5 h values, listed per item
Output spec: scalar in %, unitless text.

Take a look at these entries with their results.
molecule=COc1ccc(OCCNC(=O)c2ccc3c(=O)[nH][nH]c(=O)c3c2)cc1 attributemeasured="cytotoxicity at 70.5 h" reading=-0.259
molecule="CC(C)c1nc(CN2CCCC(Cn3cncn3)C2)cs1 (stereo not drawn)" attributemeasured="cytotoxicity at 70.5 h" reading=29.1

Please find the next molecule below.
// CCc1cc(O)n2nc(C3CCCN3C(=O)c3ccccn3)cc2n1 (stereo not drawn) : cytotoxicity at 70.5 h value = 17
